Molecular target: T1, MBP-CTCF(F4-F8) (Homo sapiens, UniProt P49711 351-489)
T1 sequence: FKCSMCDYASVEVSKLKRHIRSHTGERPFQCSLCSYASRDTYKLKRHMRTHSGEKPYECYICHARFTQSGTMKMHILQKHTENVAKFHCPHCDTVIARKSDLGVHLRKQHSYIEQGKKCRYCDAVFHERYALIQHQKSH
Assay: fluorescence anisotropy; 100 uM ZnCl2; apparent KD; 20 mM Tris pH 8, 200 mM KCl, 100 uM ZnCl2, 1 mM DTT, 25 C; 10 nM dsDNA, MBP-CTCF up to 34.5 uM
Conditions: protein: recombinant; tags: MBP (N-terminal, pMAL-c2g); label: 6-FAM at 5' end of reverse strand; blunt
Measured Metric: pKd
Give bare numbers, as −log10 of the molar value.

Supply pKd value. Item: KPNA7 exon 7 CTCF motif WT (dsDNA) DNA 1: ATCCAGAAGGAGGCAG DNA 2: CTGCCTCCTTCTGGAT 5.75
